Origin of the recorded values: PubChem BioAssay (NCI)

# growth per record follows
test system: ACHN renal; experiment: NCI-60 one-dose screen, 48 h (100 = growth as untreated, 0 = no growth, -100 = all killed); conditions: 10 µM unless noted
Compounds without any hit were thinned out: in the full panel of roughly 83,000, 20% have a hit.
TEST_READOUT: growth (%)

{"COMPOUND": "COc1ccc(C2C3(C#N)C(N)=NC(=C(C#N)C#N)C23C#N)cc1OC (centres undefined)", "UNIT_ANNOTATION": "%", "RECORDED_RESULT": 106}
{"COMPOUND": "COc1cc2c(c(OC)c1OC)C(=O)CC(c1cccc(C(=O)Nc3cccc(Br)c3)c1)O2 (centres undefined)", "UNIT_ANNOTATION": "%", "RECORDED_RESULT": 89.1}
{"COMPOUND": "C#CCCCCCCC[C@@H]1OC(=O)[C@H]([C@@H](C)CC)NC(=O)[C@H]([C@@H](C)CC)NC(=O)CC(=O)[C@@H]1C", "UNIT_ANNOTATION": "%", "RECORDED_RESULT": 94}
{"COMPOUND": "CNCCCNCCCCNCCCN1C(=O)c2ccc3c4c(ccc(c24)C1=O)C(=O)N(CCCNCc1ccccc1OC)C3=O", "UNIT_ANNOTATION": "%", "RECORDED_RESULT": 26}

* * *

test system: MDA-MB-435 melanoma; assay: NCI-60 one-dose screen, 48 h; details: 10 µM unless noted
The panel holds about 83,000 compounds, 20% with a hit somewhere; the sample as a whole holds those more often. Activity calls are given as the source filed them. The calls were made as follows: active = growth percent below 10; inactive = the rest.
Outcome codes: t for active, f for inactive

{"ITEM_SMILES": "CC(C)(C)c1ccc(OCCOC(=O)CBr)cc1", "ANSWER_LABEL": "f"}
{"ITEM_SMILES": "O=CN/N=C/c1ccc(Cl)c([N+](=O)[O-])c1", "ANSWER_LABEL": "f"}
{"ITEM_SMILES": "COC(=O)[C@H](Cc1cn(C)cn1)NC(=O)[C@@H](NC(=O)Nc1cc(C(F)(F)F)cc(C(F)(F)F)c1)C(C)(C)C", "ANSWER_LABEL": "t"}
{"ITEM_SMILES": "CCOC(=O)/C(C#N)=C(/CC)OCC", "ANSWER_LABEL": "f"}
{"ITEM_SMILES": "CCOC(=O)C1=NN(c2ccccc2)C2=NC(=O)/C(=C\\c3cn(-c4ccccc4)nc3-c3cc4ccccc4o3)C(=O)N12", "ANSWER_LABEL": "f"}

* * *

Reported growth values are given for each entry in this list.
test system: MOLT-4 leukemia; assay: NCI-60 one-dose screen, 48 h (100 = growth as untreated, 0 = no growth, -100 = all killed); details: 10 µM unless noted
About 83,000 compounds went through this panel and 20% of them were active in at least one assay; those are over-represented in the sample as a whole.
TEST_READOUT: growth (%)

{"MOLECULE": "COc1cc(-c2nn(-c3ccc(NC(=O)c4cc(Cl)cc(Cl)c4)cc3)cc2-c2ccncc2)ccc1Cl", "TARGET_ENTITY": "MOLT-4 leukemia", "UNIT_ANNOTATION": "%", "RECORDED_RESULT": 27.6}
{"MOLECULE": "N#CC1=C(N2CCOCC2)NC2c3ccccc3Sc3ccccc3N2C1=N (centres undefined)", "TARGET_ENTITY": "MOLT-4 leukemia", "UNIT_ANNOTATION": "%", "RECORDED_RESULT": 120}
{"MOLECULE": "C#CCCCCCCC[C@@H]1OC(=O)[C@H]([C@@H](C)CC)NC(=O)[C@@H]([C@@H](C)CC)NC(=O)CC(=O)[C@@H]1C", "TARGET_ENTITY": "MOLT-4 leukemia", "UNIT_ANNOTATION": "%", "RECORDED_RESULT": 87.2}
{"MOLECULE": "COC(=O)c1ccc2[nH]c(O)c(C(=Nc3ccc(N(C)C(=O)CN4CCN(C)CC4)cc3)c3ccc([N+](=O)[O-])cc3)c2c1", "TARGET_ENTITY": "MOLT-4 leukemia", "UNIT_ANNOTATION": "%", "RECORDED_RESULT": 8.41}
{"MOLECULE": "CCCCCCCCCCCC(=O)OC(C)C(=O)Nc1ccccc1 (centres undefined)", "TARGET_ENTITY": "MOLT-4 leukemia", "UNIT_ANNOTATION": "%", "RECORDED_RESULT": 96.1}
{"MOLECULE": "COC(=O)C1CC(=O)N(C(=O)Nc2ccc(Cl)cc2Cl)C1 (centres undefined)", "TARGET_ENTITY": "MOLT-4 leukemia", "UNIT_ANNOTATION": "%", "RECORDED_RESULT": 95}
{"MOLECULE": "CC(C)(C)OC(=O)N1C/C(=C\\c2ccccc2)C(=O)/C(=C/c2ccccc2)C1", "TARGET_ENTITY": "MOLT-4 leukemia", "UNIT_ANNOTATION": "%", "RECORDED_RESULT": 71.8}
{"MOLECULE": "COc1ccccc1C(=O)Nc1cccc(-c2cc(=O)c3c(OC)c(OC)c(OC)cc3o2)c1", "TARGET_ENTITY": "MOLT-4 leukemia", "UNIT_ANNOTATION": "%", "RECORDED_RESULT": 28.8}
{"MOLECULE": "CNc1ccc(Nc2ccc(S(=O)(=O)O)cc2)c2c1C(=O)c1ccccc1C2=O", "TARGET_ENTITY": "MOLT-4 leukemia", "UNIT_ANNOTATION": "%", "RECORDED_RESULT": 106}

* * *

Tested on: PC-3 prostate
Assay: NCI-60 one-dose screen, 48 h (100 = growth as untreated, 0 = no growth, -100 = all killed)
Conditions: 10 µM unless noted
Procedure: Growth inhibition of the PC-3 human tumor cell line is measured as a screen for anti-cancer activity. Cells are grown in 96 well plates and exposed to the test compound for 48 hours. Compounds are tested at a single concentration, which is 10^-5 M for most compounds. The reported endpoint is percent growth (GI% or GIPRCNT), where numbers from 0 - 100% represent growth inhibition, and numbers from -100% - 0 represent cell death. For example, a value of 40 represents 60% growth inhibition. […]
About 83,000 compounds went through this panel and 20% of them were active in at least one assay; those are over-represented in the sample as a whole.
Everything with growth lower than 10% is condition not met; everything else, including exactly 10%, is condition met.

{"COMPOUND": "CCCCCCCCCCCCCCCCNC(=S)N/N=C/c1ccc(O)cc1O", "ANSWER_LABEL": "condition met"}
{"COMPOUND": "CN1CCN(Cc2ccc(NC(=O)c3ccc(C#Cc4c(N)ncc5ccc(F)cc45)cc3)cc2C(F)(F)F)CC1", "ANSWER_LABEL": "condition not met"}
{"COMPOUND": "CCCC(C)c1cc(Cc2cc(Cl)cc(Cl)c2O)c(O)c(Cc2cc(Cl)cc(Cl)c2O)c1 (stereo not given)", "ANSWER_LABEL": "condition not met"}
{"COMPOUND": "CC1(C)NC(=S)NC1=O", "ANSWER_LABEL": "condition met"}
{"COMPOUND": "C/C=C/C/C=C/[C@H](C)C[C@H](O)[C@@H]1C[C@@H]2O[C@H]2/C=C/[C@@H]2OC(C)(C)O[C@H]2/C=C/C[C@H](C)CC(=O)O1", "ANSWER_LABEL": "condition met"}
{"COMPOUND": "O=c1[nH]c(=S)[nH]c(O)c1/C=C1\\C=Nc2ccccc21", "ANSWER_LABEL": "condition met"}
{"COMPOUND": "CCCCCCNc1nc(N2CCOCC2)c2[nH]c(NCCCCCC)nc2n1", "ANSWER_LABEL": "condition not met"}
{"COMPOUND": "COc1cc(-c2nn(-c3ccc(NC(=O)Nc4cc(C(F)(F)F)cc(C(F)(F)F)c4)cc3)cc2-c2ccncc2)ccc1Cl", "ANSWER_LABEL": "condition met"}
{"COMPOUND": "CCN(CC)CCCNc1c2ccc(Cl)cc2nc2ccc(OC)cc12", "ANSWER_LABEL": "condition not met"}
{"COMPOUND": "CC(O)C(N)=O (stereo not given)", "ANSWER_LABEL": "condition met"}

* * *

system: KM12 colon; assay: NCI-60 one-dose screen, 48 h (100 = growth as untreated, 0 = no growth, -100 = all killed); conditions: 10 µM unless noted
Compounds without any hit were thinned out: in the full panel of roughly 83,000, 20% have a hit.

{"MOLECULE": "CC(C)(C)c1ccc(OCCOC(=O)CBr)cc1", "growth, %": 87.7}
{"MOLECULE": "Cn1c2c(cc(S(=O)(=O)c3ccccc3)c1=O)CCc1c-2cnn1-c1ccc(Cl)cc1", "growth, %": 92.2}
{"MOLECULE": "COc1ccc(-c2nc(SCC(C)C)nc(Nc3ccc([N+](=O)[O-])cc3)c2C#N)cc1", "growth, %": 99.9}
{"MOLECULE": "O=c1c2c(c3ccccc3n1-c1ccccc1)NC(=S)NC2c1ccccc1 (stereo unspecified)", "growth, %": 104}
{"MOLECULE": "CCCCCCNc1nc(N2CCOCC2)c2[nH]c(NCCCCCC)nc2n1", "growth, %": -89.9}
{"MOLECULE": "CSc1nc(N)n2nccc2n1", "growth, %": 114}
{"MOLECULE": "COCn1c(C(=O)OC)cc2oc(/C=C3/SC(=S)N(N)C3=O)cc21", "growth, %": 92.3}
{"MOLECULE": "O=C(N/N=C\\c1ccc(-c2ccc(Br)cc2)o1)c1cc2oc(-c3cccc(C(F)(F)F)c3)cc2[nH]1", "growth, %": 74}
{"MOLECULE": "CC(=O)N1CCN(CCNC(=O)n2cc(-c3ccncc3)c(-c3cc(O)cc(Cl)c3)n2)CC1", "growth, %": 91.3}
{"MOLECULE": "CCC(CCCN1C(=O)c2ccccc2C1=O)Nc1cc(OC)cc2c(C)ccnc12 (stereo unspecified)", "growth, %": 102}
{"MOLECULE": "CCC(C)(C)c1ccc(OCCCCCCN2CCNCC2)cc1", "growth, %": 25.2}
{"MOLECULE": "C=CCNCCC#N", "growth, %": 115}
{"MOLECULE": "Cc1ccc(C(=O)Nc2ccc(CN3CCN(C)CC3)c(C(F)(F)F)c2)cc1C#Cc1cnc(N)c2ccc(F)cc12", "growth, %": -76.9}
{"MOLECULE": "COC(=O)C(C)[C@H]1CC[C@@H]2[C@]1(C)CC=C1[C@]23C=C[C@]2(C[C@@H](OC(C)=O)CC[C@]12C)C(C(=O)OC)C3C(=O)OC (stereo partly specified)", "growth, %": 92.5}
{"MOLECULE": "CCS(=O)(=O)OCCO[C@H]1Cc2cc3ccc(=O)oc3cc2OC1(C)C", "growth, %": 104}
{"MOLECULE": "CCCCCCCCCCCCCCCCCC(=O)Nc1ccc(O)cc1", "growth, %": 100}
{"MOLECULE": "O=C(Nc1ccc(-n2cc(-c3ccncc3)c(-c3ccc(Cl)c(O)c3)n2)cc1)c1ccc(Cl)c(Cl)c1", "growth, %": 0.115}
{"MOLECULE": "COc1cc(-c2nc3c(c(C)nc4c3nnn4-c3ccccc3)c(=O)o2)cc(OC)c1OC", "growth, %": 110}
{"MOLECULE": "c1ccc2[nH]c(-c3ccc(OCCCCCOc4ccc(-c5nc6ccccc6[nH]5)cc4)cc3)nc2c1", "growth, %": 23.5}
{"MOLECULE": "CCCCCCCCCC(C)NC(=O)CCl (stereo unspecified)", "growth, %": 101}
{"MOLECULE": "CCOC(=O)c1c(C)oc2ncnc(Nc3ccc(NC(=O)Nc4cccc(Cl)c4)cc3)c12", "growth, %": 61}
